Please respond with reported apparent Kd for every item in the list.
Tested on: MS2 coat protein
Assay: apparent Kd, MS2 coat protein; higher = weaker binding; RNA-MaP array; tryptophan 2.4 mM where present
Settings: designed as: ON switch for tryptophan; no ligand
Give bare numbers, in nM.

Field: example entries. Status: answers known.
>  <SEQ>
CCUCAAUCGUCGGCCGCCACUGGAUCAUGCGGAUACAUGAGGAUCACCCAUGUGGGUGUGGUACGCAGGACCGGGACAAGACCCG

>  <TEST_SYSTEM>
MS2 coat protein

>  <apparent Kd [nM]>
340

$$$$
>  <SEQ>
GGAUUCAACUCGGCCGCCACUGGUGAUCCUAAUGUACAUGAGGAUCACCCAUGUACAUGAGAAUACAGGACCGGGAGAUAAGCAA

>  <TEST_SYSTEM>
MS2 coat protein

>  <apparent Kd [nM]>
19.4

$$$$
>  <SEQ>
UCGAAUGCGGCGGCCGCCACUCGCGGAUAACGAUAGCUUAACAUGAGGAUCACCCAUGUGUCAUGGAGGACCGGGCCCAUACCGU

>  <TEST_SYSTEM>
MS2 coat protein

>  <apparent Kd [nM]>
22.7

$$$$
>  <SEQ>
GACCCAUGAGUUGCAAAAGCUCAUGGGUCGCGAGGACCGGUACGGCCGCCACUCGGCUGUACAUGAGGAUCACCCAUGUCAGGGU

>  <TEST_SYSTEM>
MS2 coat protein

>  <apparent Kd [nM]>
371

$$$$
>  <SEQ>
AACAUGAGGAUCACCCAUGUCCUCGUGUUCCGAGGACCGGUACGGCCGCCACUCGGUCCUCGCGAGGAUGGUCAAAGACUAUCCA

>  <TEST_SYSTEM>
MS2 coat protein

>  <apparent Kd [nM]>
97.4

$$$$

Field: apparent Kd. Fill in for each record below.
1. CCGCACAUGAGGAUCACCCAUGUCCGGGUUCGAGGACCGGUACGGCCGCCACUCGGACAUGUGCGCCCUUCAUGCACUGUAUAAA
2. CGAUAUGGGACGGCCGCCACUAUUAUGUAACAAAAUAAACAUGAGGAUCACCCAUGUACAUGGGAUAGGACCGGGUCCUAUAACG
3. AUAAAAGGGUUAUAUAGAUUUAGGUCCAGUCGAGGACCGGUACGGCCGCCACUCGUACUGAAAUACAUGAGGAUCACCCAUGUUA
4. GGGUGGUAGGCGGCCGCCACUGAUUUUUAUUUAUAGAUGACAUGAGGAUCACCCAUGUAGAUAUGCAGGACCGGGCCUGUUGUUU
5. ACCUCAUAGGCGGCCGCCACUGUAAUGACUACGUCAAACAUGAGGAUCACCCAUGUAGUCAAUCACAGGACCGGGUCAUGGGUAG

[129, 32.4, 21.8, 19.3, 39.1]

----------
Please respond with reported apparent Kd for every item in the list.
Test system: MS2 coat protein
Assay: apparent Kd, MS2 coat protein; higher = weaker binding; RNA-MaP array; theophylline 2 mM where present
Conditions: ligand present: theophylline; designed as: ON switch for theophylline
Just so you know, I need the unit written after the number.

Field: example entries. Status: answers known.
>  <SEQ>
AGUGUUAUAACUGAUACCAGACCUUUGCUUAUACAUGAGGAUCACCCAUGUAAAAUGGCGGUCCCUUGGCAGCAGAGAAUACACA

>  <apparent Kd>
12.5 nM

$$$$
>  <SEQ>
ACUUUGUCGGGUGAUACCAGCCUCGGCACAUCUCGUGCCGAACAUGAGGAUCACCCAUGUGGCCCUUGGCAGCACAUGACAAAUC

>  <apparent Kd>
59.5 nM

$$$$

Field: apparent Kd. Fill in for each record below.
1. AGGCAGUAGGUGAUCCACUGCCAAGGUGAUACCAGCAUCGAAAGAUGCCCUUGGCAGCACCAACAUGAGGAUCACCCAUGUAAUA
2. AUACCUAAUGUUACGUUUUCCUUUUCAGAUACCAGACUUUACGUUGUCCCUUGGCAGCUGUAUUACAUGAGGAUCACCCAUGUUG
3. GCAAUAACGAUUGAUACCAGCAUGUUAACAUGAGGAUCACCCAUGUUAAGGAUAACAUAAUGCCCUUGGCAGCAACGGAAAGCCG
4. CGACUACAGCGUGAUACCAGUGACAGAUACCAGUCUAGACAUGAGGAUCACCCAUGUACGCGCCCUUGGCAGCACACUAGAUCGA
5. UUAAAUGUGACGGAUACCAGCGUGUUGUAGAACAUGAGGAUCACCCAUGUAGUGAUCAUGCGCCCUUGGCAGCUGGUAUGUUUGA

1: 663 nM; 2: 29.7 nM; 3: 14 nM; 4: 49.9 nM; 5: 607 nM
